Test system: UACC-257 melanoma
Method: NCI tumour cell line growth inhibition, 48 h

Compound: COc1ccc(N=N/C(C(=O)C(F)(F)F)=C(\O)c2ccc(Cl)cc2)cc1
Relation sign: =
TGI / µM: 36.2
//
Compound: CO[C@H]1C[C@@H]2CC[C@@H](C)[C@@](O)(O2)C(=O)C(=O)N2CCCC[C@H]2C(=O)O[C@H]([C@H](C)C[C@@H]2CC[C@@H](OCCO)[C@H](OC)C2)CC(=O)[C@H](C)C=C(C)[C@@H](O)[C@@H](OC)C(=O)[C@H](C)C[C@H](C)/C=C/C=C/C=C1C
Relation sign: =
TGI / µM: 22.2
//
Compound: COc1ccc(C(OCC2OC(n3ccc(NC(=O)c4ccccc4)nc3=O)CC2OP2(=S)SCCS2)(c2ccccc2)c2ccc(OC)cc2)cc1 (stereo not drawn)
Relation sign: >
TGI / µM: 100

====

System: HOP-92 NSCLC
Method: NCI tumour cell line growth inhibition, 48 h
The reader will find reported TGI values listed item by item below.

Compound: CC1=C(C(=O)Nc2cc(F)c(F)cc2F)C(c2ccc([N+](=O)[O-])cc2)C(C(=O)Nc2cc(F)c(F)cc2F)=C(C)N1
Scale unit: µM
Relation sign: =
TGI: 42.2
//
Compound: COC(=O)[C@H]1CCCN1C(=O)[C@H]1CCCN1C(=O)[C@H](Cc1c[nH]c2ccccc12)NC(=S)Nc1cc(C(F)(F)F)cc(C(F)(F)F)c1
Scale unit: µM
Relation sign: =
TGI: 6.97
//
Compound: O=C(CC(Cl)=C(Cl)Cl)c1cccc(Cl)c1Cl
Scale unit: µM
Relation sign: >
TGI: 100
//
Compound: O=C1NC(=NCCCc2ccccc2)S/C1=C\c1ccc2ncccc2c1
Scale unit: µM
Relation sign: =
TGI: 13.4
//
Compound: C[Si](C)(C)C1=C([Si](C)(C)C)C(Cl)(Cl)C1=O
Scale unit: µM
Relation sign: =
TGI: 5.55
//
Compound: CC(C)(C)N(Cc1ccc2c(c1)OCO2)C(=O)/C=C\Sc1ccccc1
Scale unit: µM
Relation sign: =
TGI: 91
//
Compound: C[Si](C)(c1ccccc1)[C@H]1CCCC=C1CCNC1c2ccccc2CCc2ccccc21
Scale unit: µM
Relation sign: >
TGI: 100
//
Compound: COc1ccc(/C=N/n2cnc3[nH]c(C)c(Cc4ccccc4)c3c2=N)cc1
Scale unit: µM
Relation sign: >
TGI: 100
//
Compound: Cn1c(N/N=C/c2ccccc2)nc(-c2ccc([N+](=O)[O-])cc2)c(C#N)c1=O
Scale unit: µM
Relation sign: =
TGI: 80.6
//
Compound: CC(=O)NNc1nc(C)c(C(=O)NNC(=O)C(=O)Nc2ccc(Cl)cc2Cl)s1
Scale unit: µM
Relation sign: =
TGI: 70.9
//
Compound: CN(CC(=O)N(Cc1ccc(C2CCCCC2)cc1)c1ccc(C(=O)O)cc1)S(=O)(=O)c1c(F)c(F)c(F)c(F)c1F
Scale unit: µM
Relation sign: =
TGI: 4.02
//
Compound: NC(=O)NC1C(C(N)=O)N(Cc2ccccc2)C(=O)N1Cc1ccccc1 (stereo not given)
Scale unit: µM
Relation sign: >
TGI: 100
//
Compound: CCCCCCCCCCCC[n+]1ccc2ccccc2c1
Scale unit: µM
Relation sign: =
TGI: 1.79
//
Compound: O=c1[nH]cnc2c1nnn2CCCCCCCCCCCCn1nnc2c(=O)[nH]cnc21
Scale unit: µM
Relation sign: =
TGI: 53
//
Compound: CCOc1ccc(NC(=O)CC2C(=O)Nc3ccccc3S2(=O)=O)cc1 (stereo not given)
Scale unit: µM
Relation sign: =
TGI: 55.5
//
Compound: O=C(NNc1ccccc1)/C(=C/c1ccc2c(c1)OCO2)NC(=O)c1ccccc1
Scale unit: µM
Relation sign: >
TGI: 100
//
Compound: CCOc1cc(NC(C)=O)ccc1C(=O)NN1C(=O)CSC1c1ccccc1 (stereo not given)
Scale unit: µM
Relation sign: >
TGI: 100
//
Compound: C(=C\N1CCCCC1)/c1nnnn1-c1ccccc1
Scale unit: µM
Relation sign: >
TGI: 100
//
Compound: CN(c1ccccc1)c1c(Cl)c(=O)oc2c1ccc1occc12
Scale unit: µM
Relation sign: >
TGI: 100
//
Compound: Cc1cc(Cl)nc(N(CCCNc2ccnc3cc(Cl)ccc23)Cc2ccco2)n1
Scale unit: µM
Relation sign: =
TGI: 4.19
//
Compound: N=c1c2c(=N)n3c(nc2nc2n1-c1ccccc1Sc1ccccc1-2)sc1cc(Cl)ccc13
Scale unit: µM
Relation sign: =
TGI: 4.15
//
Compound: c1cc2c(cn1)Nc1ccncc1S2
Scale unit: µM
Relation sign: =
TGI: 76.6
//
Compound: COc1ccc(N(C)c2nc(N)nc3sc4c(c23)CCCC4)cc1
Scale unit: µM
Relation sign: =
TGI: 6.81
//
Compound: CCc1nc(N)nc(N)c1-c1ccc(N2CCNCC2)cc1
Scale unit: µM
Relation sign: >
TGI: 100
//
Compound: Oc1[nH]c2ccccc2c1/C=c1/cc2c(c(-c3ccc(F)cc3)n1)=Nc1ccccc1-2
Scale unit: µM
Relation sign: =
TGI: 0.981
//
Compound: COc1cccc(/C=C2\COc3ccc(-c4ccccc4)cc3C2=O)c1
Scale unit: µM
Relation sign: =
TGI: 9.41
//
Compound: Cn1cc(C2=C(c3cn(CCCCCSC(=N)N)c4ccccc34)C(=O)NC2=O)c2ccccc21
Scale unit: µM
Relation sign: =
TGI: 7.21
//
Compound: CCOC(=O)N(c1ccccc1)N(CC)C(=O)/C(C)=N/Nc1ccc([N+](=O)[O-])cc1
Scale unit: µM
Relation sign: =
TGI: 30.3
//
Compound: CNc1ncc(-c2nnnn2-c2ccccc2)c(CN(C)C)n1
Scale unit: µM
Relation sign: >
TGI: 100
//
Compound: O=C(Nc1ccccc1)c1cc(S(=O)(=O)N2CCNNC2=O)c(S)cc1Cl
Scale unit: µM
Relation sign: >
TGI: 100
//
Compound: C#CCOc1ccc2ncnc(Nc3ccc(NC(=O)C=C)cc3)c2c1
Scale unit: µM
Relation sign: =
TGI: 52.7
//
Compound: C=C1C(=O)OC2/C=C(/C)C(OC(C)=O)C/C=C(\C)C(OC(=O)C3(C)OC3C)C(O)C12 (stereo not given)
Scale unit: µM
Relation sign: >
TGI: 100
//
Compound: O=C1C(CN2CCOCC2)CCCC1CN1CCOCC1 (stereo not given)
Scale unit: µM
Relation sign: =
TGI: 1.97
//
Compound: N#C/C(=C/NC(=S)c1ccncc1)C(N)=O
Scale unit: µM
Relation sign: >
TGI: 100
//
Compound: Cn1c(-c2c(N)n(CCCN3CCOCC3)c3nc(C#N)c(C#N)nc23)nc2ccccc21
Scale unit: µM
Relation sign: =
TGI: 49.8
//
Compound: COc1cc2c(=O)[nH]c3cc([N+](=O)[O-])ccc3c2cc1[N+](=O)[O-]
Scale unit: µM
Relation sign: >
TGI: 100
//
Compound: COc1ccc(/C=C/C2=NN(c3cccc(S(=O)(=O)O)c3)C3(C2)SCC(=O)N3c2nc3ccccc3s2)cc1 (stereo not given)
Scale unit: µM
Relation sign: >
TGI: 100
//
Compound: CN(CCCNC(=O)CCOCCOCCOCCNC(=O)Cc1ccc2ccc3cccc4ccc1c2c34)CCCNc1cc(-c2ccc3ccccc3c2)nc2ccccc12
Scale unit: µM
Relation sign: =
TGI: 2.22
//
Compound: CCOC(=O)C1=C(C)N(c2ccc(OC)cc2)C2(O)C=CC(=O)C3=C(O)c4ccccc4C(=O)C312 (stereo not given)
Scale unit: µM
Relation sign: =
TGI: 9.75
//
Compound: COc1ccc(-n2sc3ncccc3c2=O)cc1
Scale unit: µM
Relation sign: =
TGI: 58.6

====

Test system: MOLT-4 leukemia
Method: NCI tumour cell line growth inhibition, 48 h
Measured metric: TGI

Molecule: CCOC(=O)c1cnc2c(C)cccc2c1Nc1ccc(C(C)=O)cc1
Measured metric: TGI
Observed value: > 100 µM

Molecule: COc1ccc2oc(=O)c(-c3csc(C)n3)cc2c1
Measured metric: TGI
Observed value: > 100 µM

Molecule: CC(=O)OC1COC(n2c(=S)n(-c3ccccc3)c(=O)c3ccccc32)C(OC(C)=O)C1OC(C)=O (stereo not given)
Measured metric: TGI
Observed value: > 100 µM

Molecule: O=c1[nH]cnc2c1nnn2CCCCCCCCCCCCn1nnc2c(=O)[nH]cnc21
Measured metric: TGI
Observed value: > 100 µM

Molecule: COc1ccccc1C[C@@H]1OC2(C=CC(=O)C=C2)O[C@H]1Cc1ccccc1OC
Measured metric: TGI
Observed value: > 50 µM

====

Test system: SK-MEL-2 melanoma
Method: NCI tumour cell line growth inhibition, 48 h
Measured metric: TGI (µM)

Compound: C[N+]1(CCN[N+]2(C)CCCCC2)CCc2ccccc2C1 (configuration not stated)
System: SK-MEL-2 melanoma
Measured metric: TGI
Scale unit: µM
Relation sign: >
Observed value: 100
//
Compound: CC(=O)N1CCn2c1nc1cc(Cl)ccc12
System: SK-MEL-2 melanoma
Measured metric: TGI
Scale unit: µM
Relation sign: =
Observed value: 92.4
//
Compound: Cc1ccc(S(=O)(=O)NC(CN)C(=O)O)cc1 (configuration not stated)
System: SK-MEL-2 melanoma
Measured metric: TGI
Scale unit: µM
Relation sign: >
Observed value: 100
//
Compound: CC(=O)[CH-]C(=O)c1ccccc1.CC(=O)[CH-]C(=O)c1ccccc1.C[C@]12CCC(=O)C=C1CC[C@@H]1C2CC[C@@]2(C)C1CC[C@]2(C)[O-].C[C@]12CCC(=O)C=C1CC[C@@H]1C2CC[C@@]2(C)C1CC[C@]2(C)[O-].Cl.[Ti+4] (some centres not stated)
System: SK-MEL-2 melanoma
Measured metric: TGI
Scale unit: µM
Relation sign: =
Observed value: 33.2
//
Compound: NS(=O)(=O)OCCCCCCCOS(N)(=O)=O
System: SK-MEL-2 melanoma
Measured metric: TGI
Scale unit: µM
Relation sign: =
Observed value: 836
//
Compound: Cc1cc(Cl)nc(N(CCCNc2ccnc3cc(Cl)ccc23)Cc2ccco2)n1
System: SK-MEL-2 melanoma
Measured metric: TGI
Scale unit: µM
Relation sign: =
Observed value: 9.19
//
Compound: CCOc1cc(NC(C)=O)ccc1C(=O)NN1C(=O)CSC1c1ccccc1 (configuration not stated)
System: SK-MEL-2 melanoma
Measured metric: TGI
Scale unit: µM
Relation sign: >
Observed value: 100
